Data origin, for the record: the RNAGym collection of RNA variant scans (doi:10.1002/anie.201605470)

Hi there, I'd appreciate the recorded self-cleavage for every entry that follows.
B1: Osa-1-4 twister ribozyme (parent)
chain: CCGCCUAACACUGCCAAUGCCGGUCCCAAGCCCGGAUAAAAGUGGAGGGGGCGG

# Variants of: B1
# EXPERIMENT: self-cleavage, relative activity (ratio to wild type); higher = more cleavage; co-transcriptional

Prompt: Requested read-out: self-cleavage. Entry: CCGCCUAACACUGCCAAUUCCGGUCUCAAGCCCGGAUAAAAGUGGAGGGGGCGG [C26U G19U]
Response: 0.05

Prompt: Requested read-out: self-cleavage. Entry: CCGCCUAACACUGCCAAUGCCGGUCCGAAGCCCGGCUAAAAGUGGAGGGGGCGG [A36C C27G]
Response: 0.05

Prompt: Requested read-out: self-cleavage. Entry: CCGCCUAACACUGCCAAUCCCGGUCCCAACCCCGGAUAAAAGUGGAGGGGGCGG [G19C G30C]
Response: 0.03

Prompt: Requested read-out: self-cleavage. Entry: CCGCCUACCACUGCCAAUGCCGGUCCCAAGCCCGGACAAAAGUGGAGGGGGCGG [A8C U37C]
Response: 0.07

Prompt: Requested read-out: self-cleavage. Entry: CCGCCUAACACUGCCAAUGCCGGUCCCAAGCCUGGAUAAAAGUGGAGGUGGCGG [C33U G49U]
Response: 0.08

Prompt: Requested read-out: self-cleavage. Entry: CCGCCUAACACUGCCAAUGCCGGUCUCAAGCCCGGAUAAAAGUGGAGGUGGCGG [C26U G49U]
Response: 0.06

Prompt: Requested read-out: self-cleavage. Entry: CCGCCUAACACUGCCAAUGCCGGUCCCAAGCCAGGAUAAAAGUGGAUGGGGCGG [C33A G47U]
Response: 0.04

Prompt: Requested read-out: self-cleavage. Entry: CCGCCUAACAAUGCCAAUGCCGGUCCCAAGCCCGGAUAAAAGUGGAGGGGGCAG [C11A G53A]
Response: 0.49

Prompt: Requested read-out: self-cleavage. Entry: CCGCCUAACACUGCCAAUGCCGGUCCGAAGCGCGGAUAAAAGUGGAGGGGGCGG [C27G C32G]
Response: 0.05

Prompt: Requested read-out: self-cleavage. Entry: CCGCCUAACACUGCCAAAGCCGGUCCCAAGCCCCGAUAAAAGUGGAGGGGGCGG [G34C U18A]
Response: 0.43

Prompt: Requested read-out: self-cleavage. Entry: CCGCCUAACACUGCCAAUGCCGGUCCCCAGCCCGGAUAAAAUUGGAGGGGGCGG [A28C G42U]
Response: 0.08

Prompt: Requested read-out: self-cleavage. Entry: CCGCCUAACACUGCCAAUGCCGGUCCCAAGCCGGGAUAAAAGUGGUGGGGGCGG [A46U C33G]
Response: 0.03

Prompt: Requested read-out: self-cleavage. Entry: CCGCCUAACAUUGCCAAUGCCGGUCCCAAGCCCGGAUAAAAGUUGAGGGGGCGG [C11U G44U]
Response: 0.67

Prompt: Requested read-out: self-cleavage. Entry: CCGCCUAACACUGCUAAUGCCGCUCCCAAGCCCGGAUAAAAGUGGAGGGGGCGG [C15U G23C]
Response: 0.03

Prompt: Requested read-out: self-cleavage. Entry: CCGCCUACCACUGCCAAUGCCGGUCCCAAGCCCGGAUAAAAGUGGAGAGGGCGG [A8C G48A]
Response: 0.02

Prompt: Requested read-out: self-cleavage. Entry: CCGCCUAACACUGCCAAUGCCGGCCCCAAGCCUGGAUAAAAGUGGAGGGGGCGG [C33U U24C]
Response: 0.06

Prompt: Requested read-out: self-cleavage. Entry: CCGCCUAACACUGCCAAUUCUGGUCCCAAGCCCGGAUAAAAGUGGAGGGGGCGG [C21U G19U]
Response: 0.21

Prompt: Requested read-out: self-cleavage. Entry: CCGCCUAACACUGCCAAUGCCGGGCCCAAGCCCUGAUAAAAGUGGAGGGGGCGG [G34U U24G]
Response: 0.03

Prompt: Requested read-out: self-cleavage. Entry: CCGCCUAACACUGCCAAUGCCGGUCCCAUGCCCGGAUAAAAGUGAAGGGGGCGG [A29U G45A]
Response: 0.03

Prompt: Requested read-out: self-cleavage. Entry: CCGCCUAACACUGCCAAUGCCGGUCCCAAGCCCGCAUAAAAGUGGAGGAGGCGG [G35C G49A]
Response: 0.05

Prompt: Requested read-out: self-cleavage. Entry: CCGCCUAACACUGCCAAUGCCGGUCCCAAGCCCGGUUAAAAGUGGAGGGGGAGG [A36U C52A]
Response: 1.04

Prompt: Requested read-out: self-cleavage. Entry: CCGCCUAACACUGCCAGUGCCGGUCCCAAGCCCGGAUAAAAGGGGAGGGGGCGG [A17G U43G]
Response: 0.51
